As shown below, each of these sequences has a reported apparent KD of MS2 coat protein value.
# System: MS2 coat protein
# method.summary: apparent KD of MS2 coat protein; designed switch direction (-1 OFF switch, 1 ON switch): 1; higher = weaker reporter binding
# settings: input ligand: none
Write the value in nM as a bare number.

Recorded apparent KD of MS2 coat protein, per entry:
- sequence: "GUAGCAUACCGAGGAUAUUCAUAUUAACAUGAGGAUCACCCAUGUUUAGGUCGAUUACGACCUUGGGAGAAGGCGGAAUGCUAC [Xeonanis - 20 Mod33] (Eterna round: R96, puzzle: Same State NG 2)"
  readout.number: 25.5
- sequence: "AAAAUAAGCCCUUGCACAUGAGGAUCACCCAUGUUCGGUUCACAGGAUAUCUAGUCAAACGGGCUGGAGAAGGGUGGCAAGGAC [Xequusceus] (Eterna round: R96, puzzle: Same State NG 3)"
  readout.number: 227
- sequence: "GAGUAGUUGAUAGGAUAUUGAUUGUUGUAGGAUCAAGAAGGAUCUAACAUGAGGAUCACCCAUGUAGGACUAUUCCUGUGUAUC [Parity 85 - Jieux - Same State NG 1] (Eterna round: R96, puzzle: Same State NG 1)"
  readout.number: 21.4
- sequence: "AAGUAACAUGAGGAUCACCCAUGUGAGGUGAGCGUAGGAUAUCGAGGAGGAAGGGUGGAGCGAGAAGGACGAGAGG [JR_SS1_Sub099] (Eterna round: R96, puzzle: Same State 1)"
  readout.number: 386
- sequence: "UUACUCAUGUAAGGAUAUGCAGCCGUUUCGGCUGCAGAAGGUACUAUAAUACAUGAGGAUCACCCAUGUCUUUUUAAUUUAGAC [JL SSNG1 1.29] (Eterna round: R96, puzzle: Same State NG 1)"
  readout.number: 47.8
- sequence: "AUGCCAAAUCGAGGAUAUGGAGCCUUAUUGGCUCCAGAAGGUGAGACAUGAGGAUCACCCAUGUGGCAGUGGUCUAAUGACCAC [Fiskers NG1ss - 32] (Eterna round: R96, puzzle: Same State NG 1)"
  readout.number: 581
- sequence: "GCUCGGCUGAUGGCCUACAUGAGGAUCACCCAUGUGAGUGGGCAGGAUAUCUAGAUUCAGGAUGUAGAGAAGGGCCUGCCGAGC [SameState NG3 #39] (Eterna round: R96, puzzle: Same State NG 3)"
  readout.number: 1190
- sequence: "UGUUGUAUUACAGGAUAUCUAUUAGUGUUAUUUAGAGAAGGGUAUUCACAUGAGGAUCACCCAUGUAUAUACGAGGAAGUUGUG [JMF's solution 90] (Eterna round: R96, puzzle: Same State NG 1)"
  readout.number: 57.4

Now, please, on to the next sequence.
Lab note: measured apparent KD of MS2 coat protein of UGGUACAUGGGAGGAUAUGGAGUGAUGACAUGAGGAUCACCCAUGUUAAAUAUGCCGAGAGGCAACUAGAAGGCCCAUGUACCU [JL SSNG1 3.98] (Eterna round: R96, puzzle: Same State NG 2) was 418

These entries and their values trace back to the supplement of paper PMC9170038.
